# System: ducksalad (Heteranthera limosa)
# assayComment: Test B flooded paddy test
# Type: in vivo
# conditionDetails: Flood, 250 g ai/ha; 0 to 100 scale where 0 is no effect and 100 is complete control; 13 to 15 d
Quick list: Plant response rating, Ducksalad per entry.
Enter the number alone.

Some solved cases for reference:
CN1CC(c2ccc(F)c(F)c2)C(C(=O)Nc2ccccc2C(F)(F)F)C1=O (stereo not shown) [Compound 641] :: 100
Cc1ccc(C2CNC(=O)C2C(=O)Nc2ccc(F)cc2F)c(F)c1 (racemic) [Compound 508] :: 50
CC(C)c1ccc(C2CNC(=O)C2C(=O)Nc2cccc(F)c2F)cc1 (stereo not shown) [Compound 470] :: 85

Next molecule, please.
Query :: Indicate the recorded Plant response rating, Ducksalad value for this molecule: Cc1cc(C2CN(C)C(=O)C2C(=O)Nc2ccccc2C(F)(F)F)ccc1F (stereo not shown) [Compound 406]
Result :: 80

---

# Test system: barnyardgrass (Echinochloa crus-galli)
# assayComment: Test B flooded paddy test
# Format: in vivo
# conditionDetails: Echinochloa crus-galli, Flood, 250 g ai/ha; scale of 0 to 100 where 0 is no effect and 100 is complete control; read-out: Barnyardgrass plant response rating
Label condition met for high-side pest or weed control at 250 g/ha (at or above 40%) and condition not met for low-side pest or weed control at 250 g/ha (below it).

Please review the following examples before continuing.
Cc1c(F)ccc([C@H]2CN(C)C(=O)[C@@H]2C(=O)Nc2ccc(F)c(F)c2F)c1F [Compound 836] :: condition met
O=C1NC[C@H](c2ccc3c(c2)CCO3)[C@H]1C(=O)Nc1ccccc1F [Compound 786] :: condition not met
Cc1c(F)cccc1NC(=O)[C@H]1C(=O)N(C)C[C@@H]1c1cc(F)c(F)c(F)c1 [Compound 867] :: condition met

Query :: Form field: pest or weed control at 250 g/ha at least 40%? Entry: CN1CC[C@H](c2ccc3c(c2)OC(F)(F)O3)[C@@H](C(=O)Nc2ccccc2C(F)(F)F)C1=O [Compound 811]
Result :: condition not met

Query :: Is it the case that O=C1NC[C@H](c2cc(F)c(C(F)(F)F)c(F)c2)[C@H]1C(=O)Nc1ccc(F)cc1F [Compound 840] has pest or weed control at 250 g/ha reaching or exceeding 40%?
Result :: condition not met

Query :: hey, is pest or weed control at 250 g/ha for this one >= 40%? Cc1cc([C@H]2CN(C)C(=O)[C@@H]2C(=O)Nc2ccccc2C(F)(F)F)ccc1Cl [Compound 932]
Result :: condition not met

Query :: Evaluate COc1cc(C(F)(F)F)ccc1[C@H]1CN(C)C(=O)[C@@H]1C(=O)Nc1ccccc1F [Compound 858] : pest or weed control at 250 g/ha at minimum 40%?
Result :: condition met

Query :: Say whether CC(C)c1cccc([C@H]2CN(C)C(=O)[C@@H]2C(=O)Nc2ccc(F)cc2F)c1 [Compound 821] shows pest or weed control at 250 g/ha of 40% or more.
Result :: condition met

---

# System: corn (Zea mays)
# assayComment: Test G Post-Emergence Protocol
# Assay type: in vivo
# conditionDetails: Zea mays, post-emergence, 312 h, 15.625 g ai/ha, evaluated after 13 days (100=total damage to plant; 0=no damage to plant), read-out: Corn damage rating
quantityKind: plant injury at 15.625 g/ha (%)
Write it as a number; the unit % goes unstated.

// known answers, use as guide
CN1C[C@H](c2cccc(C(F)F)c2)[C@@H](C(=O)Nc2cccc(F)c2F)C1=O (racemic) :: 60
CCOc1cc([C@@H]2CN(C)C(=O)[C@H]2C(=O)Nc2cccc(F)c2C)ccc1F (racemic) :: 10
CN1C[C@H](c2cccc(C(F)(F)F)c2)[C@@H](C(=O)Nc2c(O)cccc2F)C1=O (racemic) :: 0

Query :: Give recorded plant injury at 15.625 g/ha. Cc1nc(Cl)ccc1NC(=O)[C@H]1C(=O)N(C)C[C@@H]1c1ccc(C(F)(F)F)cc1 (racemic)
Result :: 0

Query :: # return recorded plant injury at 15.625 g/ha for input CC(C)S(=O)(=O)c1ccccc1NC(=O)[C@H]1C(=O)N(C)C[C@@H]1c1ccc(C(F)(F)F)cc1 (racemic)
Result :: 0

Query :: Look up and report measured plant injury at 15.625 g/ha for this entry: COc1c(Cl)ccc([C@H]2CNC(=O)[C@@H]2C(=O)Nc2cccc(F)n2)c1F (racemic)
Result :: 0

Query :: Return the recorded plant injury at 15.625 g/ha value; entry: COc1c(F)cc(C2CN(C)C(=O)C2C(=O)Nc2cccc(F)c2F)cc1F (stereo not shown)
Result :: 20

---

# reported pest or weed control at 500 g/ha; entries follow
# Tested on: giant foxtail (Setaria faberii)
# assayComment: Test A preemergence
# Format: in vivo
# conditionDetails: Setaria faberi, pre-emergence, 240 h, 500 g ai/ha, preemergence; 0 to 100 scale, 0 = no effect, 100 = complete control; read-out: Plant response rating, Foxtail, Giant
Field: numeric (%). Do not append units.

Look over these answered cases.
CN1C[C@H](c2cc(F)cc(F)c2)[C@@H](C(=O)NC2CCc3ccccc32)C1=O (some centres unmarked) :: 0
CN1C[C@H](c2nccs2)[C@@H](C(=O)Nc2ccccc2F)C1=O :: 0
COc1cc([C@H]2CN(C)C(=O)[C@@H]2C(=O)Nc2ccccc2SC)ccc1C(F)(F)F :: 100
CCc1cc(CC)cc([C@H]2CN(C)C(=O)[C@@H]2C(=O)Nc2ccccc2F)c1 :: 90
Cc1ccc(NC(=O)[C@H]2C(=O)N(C)C[C@@H]2c2cc(F)cc(F)c2)c(F)c1F :: 90
O=C1NC[C@H](c2csc3ccccc23)[C@H]1C(=O)Nc1ccccc1F :: 90
CN1C[C@H](c2ccc(C(F)(F)F)cc2)[C@@H](C(=O)Nc2cccc(F)c2F)C1=O :: 90
COc1ccc([C@H]2CNC(=O)[C@@H]2C(=O)Nc2ccccc2S(C)(=O)=O)cc1F :: 90
Cc1ccc([C@H]2CN(C)C(=O)[C@@H]2C(=O)Nc2ccccc2S(C)(=O)=O)cc1C :: 100
Cc1ccc([C@H]2CN(C)C(=O)[C@@H]2C(=O)Nc2cccc(F)c2F)c(F)c1 :: 100

Here is the next item to consider.
Query :: Report pest or weed control at 500 g/ha for "CCc1cc(CC)cc([C@H]2CN(C)C(=O)[C@@H]2C(=O)Nc2cccc(F)c2F)c1"
Result :: 90

---

Entries and their pest or weed control at 62.5 g/ha values follow.
# Tested on: ivy-leaved morning glory (Ipomoea hederacea)
# assayComment: Test G Pre-Emergence Protocol
# Format: in vivo
# conditionDetails: Ipomoea, pre-emergence, 312 h, 62.5 g ai/ha, evaluated after 13 days, 100=total damage to plant, 0=no damage to plant, read-out: plant damage rating, Morningglory, Ivy-leaved
Just the number in %, nothing appended.

A selection of reference data follows.
CN1C[C@@H](c2ccc(C(F)(F)F)cc2)[C@H](C(=O)Nc2ccc(C(F)(F)F)nc2Cl)C1=O (racemic) :: 0
CN1C[C@H](c2cccc(C(F)F)c2)[C@@H](C(=O)Nc2ccccc2F)C1=O (racemic) :: 30
Cc1ccc(NC(=O)[C@@H]2C(=O)N(C)C[C@H]2c2ccc(C(F)(F)F)cc2)nn1 (racemic) :: 0
CN1C[C@@H](c2ccc(C(F)(F)F)cc2)[C@H](C(=O)Nc2ccc(F)c(Cl)c2F)C1=O (racemic) :: 0
Cc1c(NC(=O)[C@@H]2C(=O)N(C)C[C@H]2c2ccc(C(F)(F)F)cc2)ccc(F)c1F (racemic) :: 0

Query :: For CN1C[C@@H](c2ccc(C(F)(F)F)cc2)[C@H](C(=O)Nc2cccc(Cl)n2)C1=O (racemic) , write its pest or weed control at 62.5 g/ha.
Result :: 0

Query :: Complete the entry with pest or weed control at 62.5 g/ha for Cc1cc(Cl)ncc1NC(=O)[C@@H]1C(=O)N(C)C[C@H]1c1ccc(C(F)(F)F)cc1 (racemic)
Result :: 0

Query :: State, in one line, measured pest or weed control at 62.5 g/ha of Cc1c(NC(=O)[C@@H]2C(=O)N(C)C[C@H]2c2ccc(C(F)(F)F)cc2)ccnc1Cl (racemic)
Result :: 20

---

# System: ragweed (common ragweed, Ambrosia elatior)
# assayComment: Test A preemergence
# Type: in vivo
# conditionDetails: Ambrosia artemisiifolia, pre-emergence, 240 h, 500 g ai/ha, Preemergence, visual injury vs untreated controls after approximately 10 d; read-out: Ragweed plant response rating (0 to 100 scale where 0 is no effect and 100 is complete control)
quantityKind: pest or weed control at 500 g/ha (%)
A number alone suffices; assume %.

O=C1NC[C@H](c2ccc3c(c2)CCO3)[C@H]1C(=O)Nc1ccc(F)cc1F [Compound 902] :: 0
COc1c(F)ccc([C@H]2CN(C)C(=O)[C@@H]2C(=O)Nc2cccc(F)c2F)c1Cl [Compound 893] :: 70
Cc1c(F)cccc1NC(=O)[C@H]1C(=O)NC[C@@H]1c1cccc(C(F)(F)F)c1 [Compound 826] :: 80
CN1C[C@H](c2cc(F)cc(F)c2)[C@@H](C(=O)Nc2ncc(C(F)(F)F)cc2F)C1=O [Compound 868] :: 0
COc1ccc(CN2CC[C@H](c3ccc(F)cc3)[C@@H](C(=O)Nc3cccc(F)c3F)C2=O)cc1 [Compound 919] :: 0

Query :: Look up and report measured pest or weed control at 500 g/ha for this entry: Cc1cc(C)cc([C@H]2CN(C)C(=O)[C@@H]2C(=O)Nc2ccccc2F)c1 [Compound 910]
Result :: 0

Query :: Find the measured pest or weed control at 500 g/ha of COc1cc(C(F)(F)F)ccc1[C@H]1CN(C)C(=O)[C@@H]1C(=O)Nc1ccccc1F [Compound 858] and report it.
Result :: 30

Query :: Answer with the recorded pest or weed control at 500 g/ha of O=C1NC[C@H](c2cc(F)c(C(F)(F)F)c(F)c2)[C@H]1C(=O)Nc1ccc(F)cc1F [Compound 840] only.
Result :: 0

Query :: Give the value of pest or weed control at 500 g/ha reported for the following: COc1c(F)ccc([C@H]2CN(C)C(=O)[C@@H]2C(=O)Nc2ccc(F)cc2F)c1Cl [Compound 894]
Result :: 40

Query :: Note down pest or weed control at 500 g/ha recorded for CN1CC[C@H](c2ccc(F)cc2)[C@@H](C(=O)Nc2ccccc2F)C1=O [Compound 917]
Result :: 0
